assay: Cytotoxicity against human HepDE19 cells assessed as reduction in cell viability measured after 5 days by CCK-8 method; type: functional; settings: HepDE19, 120 h, time 5 day
experimental_endpoint: CC50 (µM)
One number for each entry, in µM.

Some compounds with recorded CC50:
{"compound": "CCc1cccc(NC(=O)N2CCn3ncc(-c4ccc(F)cc4)c3C2)c1", "CC50 [µM]": 55}
{"compound": "C[C@H]1Cn2ncc(-c3ccc(F)cc3)c2CN1C(=O)Nc1ccc(F)c(Cl)c1", "CC50 [µM]": 26}

Each compound below has a recorded value; state its CC50.
1. CC1c2c(-c3ccc(F)cc3)cnn2CCN1C(=O)Nc1ccccc1 (stereo unspecified)
2. O=C(Nc1ccc(F)cc1)N1CCn2ncc(-c3ccc(F)cc3)c2C1
3. Cc1cc(NC(=O)N2CCn3ncc(-c4ccc(F)cc4)c3C2)ccc1F
4. CN(C(=O)N1CCn2ncc(-c3ccc(F)cc3)c2C1)c1ccccc1
5. O=C(Nc1cccc(Cl)c1)N1CCn2ncc(-c3ccc(F)cc3)c2C1
6. CCCc1cccc(NC(=O)N2CCn3ncc(-c4ccc(F)cc4)c3C2)c1
7. O=C(Nc1ccccc1F)N1CCn2ncc(-c3ccc(F)cc3)c2C1

Response:
45
55
26
93
87
13
12

* * *

assay: AUC (0 to infinity) in C57BL/6 mouse plasma at 5 mg/kg, po administered as single dose measured upto 24 hrs by LC-MS/MS analysis; format: ADME, organism-based; set-up: time < 24 hrs, dose 5 mg/kg, route po
experimental_endpoint: AUC(0-inf) (ng·h/mL)
Numbers only, in ng·h/mL.

Each compound below has a recorded value; state its AUC(0-inf).
1. C[C@H]1Cn2ncc(N3CCOCC3=O)c2CN1C(=O)Nc1ccc(F)c(Cl)c1
2. C[C@H]1Cn2ncc(N3CCCC3=O)c2CN1C(=O)Nc1cc(F)c(F)c(F)c1

Response:
4180
2640

* * *

experiment: Selectivity index, ratio of CC50 for human HepDE19 cells assessed as reduction in cell viability to EC50 for HBV infected in human HepG2.2.15 cells assessed as reduction in HBV DNA replication; type: toxicity, cell-based; conditions: HBV-infected HepG2.2.15 cells (EC50)
Provide the reported selectivity ratio of each item.

Some compounds with recorded selectivity ratio:
{"smiles_representation": "O=C(Nc1cc(F)cc(F)c1)N1CCn2ncc(-c3ccc(F)cc3)c2C1", "selectivity ratio": 49}
{"smiles_representation": "O=C(Nc1ccc(Cl)cc1)N1CCn2ncc(-c3ccc(F)cc3)c2C1", "selectivity ratio": 79}
{"smiles_representation": "O=C(Nc1ccc(F)c(Cl)c1)N1CCn2ncc(N3CCCC3=O)c2C1", "selectivity ratio": "> 1930"}
{"smiles_representation": "O=C(NC1CCCC1)N1CCn2ncc(-c3ccc(F)cc3)c2C1", "selectivity ratio": "> 54"}
{"smiles_representation": "Cc1ccc(NC(=O)N2CCn3ncc(-c4ccc(F)cc4)c3C2)cc1", "selectivity ratio": 28}

Let us examine a further case.
Request: Looking for the measured selectivity ratio of O=C(Nc1cccc(F)c1)N1CCn2ncc(-c3ccc(F)cc3)c2C1 , can you help?
Response: 76

* * *

assay: Ratio of AUC (0 to infinity) in liver to plasma of C57BL/6 mouse liver at 3 mg/kg, po administered as single dose measured upto 24 hrs by LC-MS/MS analysis; assay type: ADME, organism-based; conditions: read-out: Ratio AUC
experimental_endpoint: Kp at 24 h
Give bare numbers.

Request: Looking for the measured Kp at 24 h of O=C(Nc1ccc(F)cc1)N1CCn2ncc(-c3ccc(F)cc3)c2C1 , can you help?
Response: 18.5

* * *

experiment: Volume of distribution at steady state in C57BL/6 mouse plasma at 1 mg/kg, iv administered as single dose measured upto 24 hrs by LC-MS/MS analysis; format: ADME, organism-based; settings: read-out: Vdss
experimental_endpoint: Vd (L/kg)
Numbers only, in L/kg.

Request: Looking for the measured Vd of O=C(Nc1ccc(F)cc1)N1CCn2ncc(-c3ccc(F)cc3)c2C1 , can you help?
Response: 2.1

* * *

assay: Metabolic stability in human liver microsomes assessed as clearance at 1 uM preincubated for 10 mins and measured upto 30 mins in presence of NADPH generating system by LC-MS/MS analysis; type: ADME, Microsome; conditions: time < 40 min
Provide the reported CLhep predicted at 1 µM of each item.
Numbers only, in mL/min/kg.

Some molecules with recorded CLhep predicted at 1 µM:
{"smiles_representation": "Cc1cc(NC(=O)N2CCn3ncc(-c4ccc(F)cc4)c3C2)ccc1F", "CLhep predicted at 1 µM, mL/min/kg": 16}
{"smiles_representation": "C[C@H]1Cn2ncc(N3CCCC3=O)c2CN1C(=O)Nc1cc(F)c(F)c(F)c1", "CLhep predicted at 1 µM, mL/min/kg": 6.5}
{"smiles_representation": "O=C(Nc1cc(F)c(F)c(F)c1)N1CCn2ncc(N3CCCC3=O)c2C1", "CLhep predicted at 1 µM, mL/min/kg": 6.2}
{"smiles_representation": "O=C(Nc1cccnc1)N1CCn2ncc(-c3ccc(F)cc3)c2C1", "CLhep predicted at 1 µM, mL/min/kg": 6}
{"smiles_representation": "C[C@H]1Cn2ncc(N3CCOCC3=O)c2CN1C(=O)Nc1cc(F)c(F)c(F)c1", "CLhep predicted at 1 µM, mL/min/kg": 6.2}

Each molecule below has a recorded value; state its CLhep predicted at 1 µM.
1. C[C@@H]1[C@H](C)N(C(=O)Nc2cc(F)c(F)c(F)c2)Cc2c(N3CCCC3=O)cnn21
2. O=C(Nc1ccccn1)N1CCn2ncc(-c3ccc(F)cc3)c2C1
3. O=C(Nc1ccc(F)c(F)c1)N1CCn2ncc(-c3ccc(F)cc3)c2C1
4. O=C(Nc1ccccc1)N1CCn2nnc(-c3ccc(F)cc3)c2C1

Response:
8.7
17
16
14

Request: Looking for the measured CLhep predicted at 1 µM of O=C(Nc1ccc(F)c(Cl)c1)N1CCn2ncc(N3CCOCC3=O)c2C1 , can you help?
Response: 6.2

* * *

test: Metabolic stability in human liver microsomes assessed as clearance at 1 uM preincubated for 10 mins and measured upto 30 mins in presence of NADPH generating system by LC-MS/MS analysis; assay type: ADME, Microsome; conditions: time < 40 min
Provide the reported CLhep predicted at 1 µM of each item.
Give bare numbers, in mL/min/kg.

Some compounds with recorded CLhep predicted at 1 µM:
{"smiles_representation": "O=C(Nc1cccnn1)N1CCn2ncc(-c3ccc(F)cc3)c2C1", "CLhep predicted at 1 µM [mL/min/kg]": 7}
{"smiles_representation": "O=C(Nc1ccc(F)c(Cl)c1)N1CCn2ncc(N3CCCC3)c2C1", "CLhep predicted at 1 µM [mL/min/kg]": 16}

Request: Looking for the measured CLhep predicted at 1 µM of O=C(Nc1ccccc1)N1CCn2cnc(-c3ccc(F)cc3)c2C1 , can you help?
Response: 14

* * *

Provide the reported CC50 of each item.
test: Cytotoxicity against human HepDE19 cells assessed as reduction in cell viability measured after 5 days by CCK-8 method; type: functional; details: HepDE19, 120 h, time 5 day
Numbers only, in µM.

Some molecules with recorded CC50:
{"smiles_representation": "C[C@H]1CN(C(=O)Nc2ccc(F)c(Cl)c2)Cc2c(-c3ccc(F)cc3)cnn21", "result_unit": "µM", "CC50": 28}
{"smiles_representation": "O=C(Nc1cc(F)c(F)c(F)c1)N1CCn2ncc(-c3ccc(F)cc3)c2C1", "result_unit": "µM", "CC50": 31}

Request: Looking for the measured CC50 of O=C(Nc1cc(F)cc(F)c1)N1CCn2ncc(-c3ccc(F)cc3)c2C1 , can you help?
Response: 11

* * *

assay: Clearance in C57BL/6 mouse plasma at 1 mg/kg, iv administered as single dose measured upto 24 hrs by LC-MS/MS analysis; type: ADME, organism-based
experimental_endpoint: clearance (mL/min/kg)
Give bare numbers, in mL/min/kg.

Request: Looking for the measured clearance of O=C(Nc1ccc(F)cc1)N1CCn2ncc(-c3ccc(F)cc3)c2C1 , can you help?
Response: 146

* * *

Provide the reported selectivity ratio of each item.
assay: Selectivity index, ratio of CC50 for human HepDE19 cells assessed as reduction in cell viability to EC50 for HBV infected in human HepG2.2.15 cells assessed as reduction in HBV DNA replication; assay type: toxicity, cell-based; settings: HBV-infected HepG2.2.15 cells (EC50)
One number for each entry.

Some compounds with recorded selectivity ratio:
{"smiles_representation": "C[C@H]1Cn2ncc(N3CCCC3=O)c2CN1C(=O)Nc1ccc(F)c(Cl)c1", "selectivity ratio": 2600}
{"smiles_representation": "O=C(Nc1ccc(F)c(Cl)c1)N1CCn2ncc(-c3ccc(F)cc3F)c2C1", "selectivity ratio": 1180}
{"smiles_representation": "O=C(NCc1ccccc1)N1CCn2ncc(-c3ccc(F)cc3)c2C1", "selectivity ratio": 63}
{"smiles_representation": "CCCc1cccc(NC(=O)N2CCn3ncc(-c4ccc(F)cc4)c3C2)c1", "selectivity ratio": 5}
{"smiles_representation": "O=C(Nc1ccc(F)c(F)c1)N1CCn2ncc(-c3ccc(F)cc3)c2C1", "selectivity ratio": 222}

Each compound below has a recorded value; state its selectivity ratio.
1. O=C(Nc1ccc(F)c(Cl)c1)N1CCn2ncc(-c3ncc(F)cn3)c2C1
2. O=C(Nc1ccccc1)N1CCn2ncc(-c3ccc(F)cc3)c2C1
3. C[C@H]1Cn2ncc(-c3ccc(F)cc3)c2CN1C(=O)Nc1ccc(F)c(Cl)c1
4. O=C(Nc1ccc(F)c(Cl)c1)N1CCn2ncc(N3CCCC3)c2C1

Response:
1: 250; 2: 204; 3: 2170; 4: 440
